The reported numbers originate from patent US20240270826A1.

Biological target: Human SARS-CoV-2_Wuhan S (SmT1) (SARS-CoV-2 (Wuhan), UniProt P0DTC2 14-1208)
Experiment: SPR, VHH over immobilised S

binder	unitDescriptor	Kd
NRCoV2-06 VHH (VHH) VHH: EVQLVQSGGGLVQAGESLRLSCAASVSTFSSYAMGWYRQAPGKQRELVASIGFVGATYYIDSVKGRFTISRDNAKKTAYLQMNDLKPDDTAVYYCNARHYGGSEYWGQGTQVTVSS	nM	223
NRCoV2-MRed06 VHH (VHH) VHH: EVQLVESGGGLVQAGGSLRLSCAASGFTLAYYAIGWFRQAPGKEREGVSCISSSDGSAHYADSVKGRFTISRDNAKNTVSLQMNSLKPEDTAVYYCATDSFSSCSDYESGMDFWGKGTQVTVSS	nM	5.19
